Assay: in vivo
Settings: male, SD, rat, po, 5 mg/kg, HL_Lambda_z (T1/2)
Method: Compounds tested were as follows: kinetin (MW=215.21); MTK-115 (MW=243.26); MTK-115D (MW=219.29); MTK-125A (MW=217.27); and MTK-63A (MW=203.24). Formulation concentrations were 0.2 mg/mL for IV delivery; 0.5 mg/mL for PO delivery. […] Compounds were prepared in a formulation of 4% DMSO, 15% Solutol HS 15, 81% PBS and then administered to male SD rats via oral gavage at 5 mg/kg (n=3 per compound). […] Data were then plotted, and AUC values calculated.
measurement.label: half-life (h)
Reply numerically in h, unit not repeated.

Ask: Reported half-life, compound CCCCNc1nc(C)nc2[nH]c(C)nc12 [MTK-115D] : ____
Reply: 0.66

Ask: Then this compound: `Cc1nc(NCc2ccco2)c2nc(C)[nH]c2n1`
Reply: 1.15

Ask: Now consider c1coc(CNc2ncnc3[nH]cnc23)c1 [kinetin, reference compound] .
Reply: 1.08

Ask: Input C/C=C/CNc1nc(C)nc2[nH]cnc12 [MTK-63A]
Reply: 1.63
